Each recorded value in this set is attributed to patent US20250313574A1.

Experimental system: Recombinant Human Siglec-3/CD33 protein (His-CD33) (Homo sapiens (Human))
Sequence (P20138 18-259): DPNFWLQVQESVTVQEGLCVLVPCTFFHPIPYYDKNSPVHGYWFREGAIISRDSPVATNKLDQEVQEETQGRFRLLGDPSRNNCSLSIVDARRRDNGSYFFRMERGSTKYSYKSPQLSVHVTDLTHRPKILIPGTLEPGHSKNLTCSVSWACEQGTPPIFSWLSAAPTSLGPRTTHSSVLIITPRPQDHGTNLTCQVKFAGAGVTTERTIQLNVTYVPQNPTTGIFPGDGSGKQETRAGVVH
Procedure summary: Differential scanning fluorimetry (DSF) thermal shift assay
Type: binding
Test conditions: difference in thermal melt of CD33 protein (0.5 μM) with 50 μM compound
Quantity: DSF (dTmD) (°C)

CC(=O)N[C@H]1[C@H]2O[C@](C(=O)O)(C/C=C/COC[C@H](NC(=O)C3CCCOC3)COCCOc3c(C)cc(cc3C)C(=O)NC[C@@H](O)[C@H]2O)C[C@@H]1O (some centres unmarked) [A-339] = 4.4
CC(=O)N[C@H]1[C@H]([C@H](O)[C@H](O)CNC(=O)c2cc(C)c(O)c(C)c2)O[C@@](C/C=C/c2cnc(CNC(=O)C3CCCOC3)s2)(C(=O)O)C[C@@H]1O (some centres unmarked) [A-294] = 4.2
CC(=O)N[C@H]1[C@H]([C@H](O)[C@H](O)CNC(=O)c2cc(C)c(O)c(C)c2)O[C@@](CC2OC(C)(C)O[C@H]2c2cc(N3CCCC3=O)ccc2C)(C(=O)O)C[C@@H]1O (some centres unmarked) [A-318] = 7.4

I: Cc1cc(C(=O)NC[C@@H](O)[C@@H](O)[C@@H]2O[C@@](OC3CCCCC3NC(=O)CN(C)C(=O)OCc3ccccc3)(C(=O)O)C[C@H](O)[C@H]2NC(=O)Cn2cc(C3CCCCC3)nn2)cc(C)c1O (some centres unmarked) [A-325]
II: CC(=O)N[C@H]1[C@H]([C@H](O)[C@H](O)CNC(=O)c2cc(C)c(O)c(C)c2)O[C@@](C/C=C/c2cccc(CNC(=O)c3ccc4[nH]nnc4c3)c2)(C(=O)O)C[C@@H]1O [A-237]
[in] Which has the smaller recorded DSF (dTmD), I or II ? In your reply, give the label of the chosen option.
[out] II
(II: 0.8 °C, I: 3.3 °C)
